PROCEDURE_TEXT: Inhibition of full length HCV NS3/4A protease
Set-up: species or system Hepacivirus hominis
Can you tell me Ki for the items I'm about to list?
Write the value in nM as a bare number.

# input Ki for `COc1ccc2c(O[C@@H]3C[C@H]4C(=O)N[C@]5(C(=O)NS(=O)(=O)C6CC6)C[C@H]5/C=C\CCCCCC(=O)N4C3)cc(-c3nc(C(C)C)cs3)nc2c1` ?
# output 0.4

# input Fill blank: measured Ki of the molecule `COc1ccc2c(O[C@@H]3C[C@H]4C(=O)N[C@]5(C(=O)NS(=O)(=O)C6CC6)C[C@H]5/C=C\CCCCCC(=O)N4C3)cc(-c3nc(C(C)C)cs3)nc2c1C` is ____.
# output 0.2

# input So what's the measured Ki for this one? `COc1ccc2c(O[C@@H]3C[C@H]4C(=O)N[C@]5(C(=O)O)C[C@H]5/C=C\CCCCC[C@H](NC(=O)OC5CCCC5)C(=O)N4C3)cc(-c3csc(NC(C)C)n3)nc2c1`
# output 0.3

# input Requested field: Ki. Item: `COc1ccc2c(O[C@@H]3C[C@H]4C(=O)N[C@]5(C(=O)NS(=O)(=O)C6(C)CC6)C[C@H]5/C=C\CCCCCC(=O)N4C3)cc(-c3nc(C(C)C)cs3)nc2c1Cl`
# output 0.2

# input // Ki lookup, key: `COc1ccc2c(O[C@@H]3C[C@H]4C(=O)N[C@]5(C(=O)NS(=O)(=O)C6CC6)C[C@H]5/C=C\CCCCCCC(=O)N4C3)cc(-c3nc(C(C)C)cs3)nc2c1C`
# output 2.8

# input Could you share which Ki value was measured for `COc1ccc2c(O[C@@H]3C[C@H]4C(=O)N[C@]5(C(=O)NS(=O)(=O)C6CC6)C[C@H]5/C=C\CCCCCCC(=O)N4C3)cc(-c3csc(NC(C)C)n3)nc2c1` ?
# output 0.9

# input May I ask what Ki has been recorded for `COc1ccc2c(O[C@@H]3C[C@H]4C(=O)N[C@]5(C(=O)NS(=O)(=O)C6(C)CC6)C[C@H]5/C=C\CCCCCC(=O)N4C3)cc(-c3nc(C(C)C)cs3)nc2c1C` ?
# output 0.4

# input Which Ki value belongs to `COc1ccc2c(O[C@@H]3C[C@H]4C(=O)N[C@]5(C(=O)NS(=O)(=O)C6CC6)C[C@H]5/C=C\CCCCCCC(=O)N4C3)cc(-c3nccs3)nc2c1C` ?
# output 0.5

# input What value of Ki has been recorded for this entry: `COc1ccc2c(O[C@@H]3C[C@H]4C(=O)N[C@]5(C(=O)NS(=O)(=O)C6CC6)C[C@H]5/C=C\CCCCCCC(=O)N4C3)cc(-c3cscn3)nc2c1`
# output 0.5

# input Data request, read-out Ki, for `COc1ccc2c(O[C@@H]3C[C@H]4C(=O)N[C@]5(C(=O)NS(=O)(=O)C6CC6)C[C@H]5/C=C\CCCCCC(=O)N4C3)cc(-c3nc(C(C)C)cs3)nc2c1Cl`
# output 0.4

# input Recorded Ki for `COc1ccc2c(O[C@@H]3C[C@H]4C(=O)N[C@]5(C(=O)O)C[C@H]5/C=C\CCCCCCC(=O)N4C3)cc(-c3csc(NC(C)C)n3)nc2c1` , please?
# output 46

# input Entry `COc1ccc2c(O[C@@H]3C[C@H]4C(=O)N[C@]5(C(=O)NS(=O)(=O)C6CC6)C[C@H]5/C=C\CCCCCCC(=O)N4C3)cc(-c3nc(C(C)C)cs3)nc2c1` has what Ki?
# output 0.65

# input State the recorded Ki for this entry: `COc1ccc2c(O[C@@H]3C[C@H]4C(=O)N[C@]5(C(=O)NS(=O)(=O)C6CC6)C[C@H]5/C=C\CCCCCCC(=O)N4C3)cc(-c3nccs3)nc2c1Br`
# output 0.1

# input Query: Ki; subject: `COc1ccc2c(O[C@@H]3C[C@H]4C(=O)N[C@]5(C(=O)NS(=O)(=O)C6CC6)C[C@H]5/C=C\CCCCCCC(=O)N4C3)cc(-c3nccs3)nc2c1`
# output 1

# input Recorded Ki for `COc1ccc2c(O[C@@H]3C[C@H]4C(=O)N[C@]5(C(=O)O)C[C@H]5/C=C\CCCCCCC(=O)N4C3)cc(-c3nc(C(C)C)cs3)nc2c1` , please?
# output 18

Data provenance: ChEMBL document CHEMBL1141682
